Reported inhibition values are given for each entry in this list.
target: Bcl-2-like protein 1 (Homo sapiens); experiment: Bcl-xL/Bim BH3 interaction blockers – biochemical, fluorescence polarization, HTS, primary screen (AID 2129); conditions: GST-Bcl-xL / FITC-Bim BH3 peptide fluorescence polarization; at 10.9 µM; stronger effect = higher value;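 further: 0% = DMSO wells and 100% = unlabeled Bim-BH3 peptide competitor; inhibitors lower millipolarization by displacing the labeled peptide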
In all, about 320,000 compounds went through this assay and about 2,200 (0.69%) were called active. The full list was thinned out, with actives kept by preference.
Respond numerically; units are % and should not be typed.

Some entries whose results are on file:
RECORD_SMILES	UNIT_SPEC	inhibition
COc1cccc(COc2ccc(N(C)S(=O)(=O)c3ccccc3)cc2)c1	%	-4.97
Cc1ccc2nc(COc3ccc(N(C)S(=O)(=O)c4ccccc4)cc3)cc(=O)n2c1	%	36.5
CC(=O)n1c(C=Nc2ccccc2)c(O)c2ccccc21	%	-15.2

Task item: Respond only with inhibition recorded for COc1ccc(Cc2nnc(SCC(=O)c3cccc([N+](=O)[O-])c3)n2C)cc1
Reply: 3.55

Task item: Respond only with inhibition recorded for O=C(COC(=O)/C=C/c1nc2ccccc2s1)Nc1ccccc1Oc1ccccc1
Reply: -1.24

Task item: Respond only with inhibition recorded for O=C1c2ccccc2C(=O)N1c1cccc2ccccc12
Reply: 4.16

----------
target: Bcl-2-like protein 1 (Homo sapiens); assay: Bcl-xL/Bim BH3 interaction blockers – biochemical, fluorescence polarization, HTS, primary screen (AID 2129); conditions: GST-Bcl-xL / FITC-Bim BH3 peptide fluorescence polarization; at 10.9 µM; stronger effect = higher value;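 further: 0% = DMSO wells and 100% = unlabeled Bim-BH3 peptide competitor; inhibitors lower millipolarization by displacing the labeled peptide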
The campaign covered roughly 320,000 compounds. About 2,200 (0.69%) were called active. Shown is part of a subset that was picked to be rich in actives.
Reported inhibition values are given for each entry in this list.
Respond numerically; units are % and should not be typed.

COMPOUND	TARGET_SYSTEM	inhibition / %
CNC(C)C#Cc1ccc2sc3cc(OC)c(OC)cc3c(=O)c2c1 (centres undefined)	Bcl-2-like protein 1 (Homo sapiens)	0.94

Task item: Respond only with inhibition recorded for COc1ccc(-n2cnc3cc(NCc4ccco4)ccc32)cc1
Reply: 6.77

Task item: Respond only with inhibition recorded for Cc1ccc(/C=N/NC(=O)COc2ccccc2-c2ccccc2)cc1
Reply: 68.1

Task item: Respond only with inhibition recorded for CCc1nnc(SCc2cccc(F)c2)nc1CC
Reply: 1.39

Task item: Respond only with inhibition recorded for COc1ccccc1N1CC(C(=O)NCCN2C(=O)S/C(=C\c3cccnc3)C2=O)CC1=O (centres undefined)
Reply: 9.93

Task item: Respond only with inhibition recorded for CC(CCc1ccccc1)NCC(O)c1cccc([N+](=O)[O-])c1 (centres undefined)
Reply: 1.94

----------
biological target: Bcl-2-like protein 1 (Homo sapiens) (UniProt Q07817); assay: Bcl-xL/Bim BH3 interaction blockers – biochemical, fluorescence polarization, HTS, primary screen (AID 2129); settings: GST-Bcl-xL / FITC-Bim BH3 peptide fluorescence polarization; at 10.9 µM;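 further: 0% = DMSO wells and 100% = unlabeled Bim-BH3 peptide competitor; inhibitors lower millipolarization by displacing the labeled peptide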
Sequence (Q07817 whole entry, looked up): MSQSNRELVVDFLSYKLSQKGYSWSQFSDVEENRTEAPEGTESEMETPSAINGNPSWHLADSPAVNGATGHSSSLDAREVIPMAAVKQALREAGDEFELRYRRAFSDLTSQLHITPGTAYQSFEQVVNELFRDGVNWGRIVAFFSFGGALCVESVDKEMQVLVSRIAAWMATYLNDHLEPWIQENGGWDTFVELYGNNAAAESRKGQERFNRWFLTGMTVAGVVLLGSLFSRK
About 2,200 (0.69%) of roughly 320,000 compounds were called active.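 How the source made its calls: active means inhibition above the mean of all tested compounds plus 3 SD, cutoff set per campaign (cut at about 30% in these data); inactive means the rest.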 This excerpt belongs to a sample that is enriched for actives.
Your response should consist of one outcome taken from 1 (yes) (active), 0 (no) (inactive)

COMPOUND	CLASS_NAME
COC(=O)c1ccc(SCc2ccccc2)nc1	0 (no)
CCCCOC(=O)CNc1nnc(SCC(=O)OCC)[nH]c1=O	0 (no)
Cc1cc(C(=O)NC2CCN(Cc3ccccc3)CC2)n[nH]1	0 (no)
Cc1cccn2c(=O)c3cc(C(=O)NCC4CCCO4)c(=N)n(Cc4ccc(F)cc4)c3nc12 (stereo unspecified)	0 (no)
CCn1c(SCc2ccccc2)nc2cc(OC)c(OC)cc2c1=O	0 (no)

Task item: // return assay outcome for Cc1cccc(C)c1N1C(=O)CN(Cc2ccccc2)C1=S
Reply: 0 (no)

Task item: // return assay outcome for O=c1[nH]c2ccccc2n2c(-c3ccccc3)nnc12
Reply: 1 (yes)

Task item: // return assay outcome for COc1ccc(CCn2c(=N)c(C(=O)NCC3CCCO3)cc3c(=O)n4cccc(C)c4nc32)cc1OC (stereo unspecified)
Reply: 0 (no)

Task item: // return assay outcome for COc1ccc(C(=O)NCC(c2ccco2)N2CCc3ccccc32)cc1OC (stereo unspecified)
Reply: 0 (no)

Task item: // return assay outcome for CC(C)(C)C1CCc2c(sc3nc(SCC(N)=O)nc(N)c23)C1 (stereo unspecified)
Reply: 0 (no)

Task item: // return assay outcome for CSc1c(SCc2ccccc2)cnn(Cc2ccccc2)c1=O
Reply: 1 (yes)
